Origin of the recorded values: ChEMBL document CHEMBL4513216

Listed here are molecules together with their documented cytotoxicity at 10 µM.
experiment: Toxicity liver stage against HepG2, at 10uM; assay type: cell-based; design: test concentration 10 uM, cell line HepG2-A16-CD81EGFP; conditions: human, HepG2-A16-CD81EGFP cells; read-out: INHIBITION
outcome_measure: cytotoxicity at 10 µM

> print(dat)
                                   molecule      val
1  Cc1ncsc1CN1C[C@H]2OCC[C@H]2[C@H](C(=O)NCC2CC2)C1     5.6%
2     O=C1CCC2(CCNCC2)CN1Cc1nncn1CCc1ccccc1   -10.1%
3         O=C(O)c1cc(-c2cccs2)nc2c(Cl)cnn12   -8.33%
4    O=C(NCc1cccnc1)N1CCc2ncnc(NC3CC3)c2CC1    -107%
5  COc1ccccc1CN(Cc1nc2c(cnn2C)c(=O)[nH]1)C1CC1      15%
6  Cc1occc1C(=O)N1CCC(C(O)c2ccc(Cl)cc2)CC1 (stereo unspecified)  -0.342%

###

assay: Toxicity liver stage against HepG2, at 10uM; type: cell-based; design: test concentration 10 uM, cell line HepG2-A16-CD81EGFP; details: human, HepG2-A16-CD81EGFP cells; read-out: INHIBITION
outcome_measure: cytotoxicity at 10 µM (%)

> print(dat)
                                    compound     val
 1  CCN1CCN(C(=O)c2ccc3c(c2)NC(=O)CN3)[C@H]2CS(=O)(=O)C[C@H]21   -52.9
 2      Cc1ccc(C(=O)NCCS(=O)(=O)N2CCSCC2)n1C  -0.506
 3  Cc1noc(C)c1CN1C(=O)[C@@H]2CC[C@H]1CN(C(=O)c1cscn1)C2   -10.6
 4  O=C(CCn1cccn1)N1CCC(c2nnc(-c3ccsc3)o2)CC1    4.25
 5  CCOC(=O)CNC(=O)N1CCc2onc(-c3ccc(Cl)cc3)c2C1   -43.4
 6  c1nc2c(c(C3CC3)n1)CCN(Cc1ccc3c(c1)OCO3)CC2   -17.1
 7  CN(CCS(=O)(=O)c1cc(Cl)ccc1Cl)CC(=O)Nc1ccc(F)cc1     8.9
 8  COc1c(C)cnc(CN2CCC(N(C)C(C)C(N)=O)CC2)c1C (stereo unspecified)   -3.38
 9      CN1CCN(C2CCN(CCOc3ccc(F)cc3)CC2)C1=O    -7.8
10    CCOc1ccc2oc(-c3cnn(C)c3C)c(O)c(=O)c2c1    7.72
11  CC(O)CNCc1c(C(C)C)nn(C)c1N1CCOCC1 (stereo unspecified)   -3.48

###

test: Toxicity liver stage against HepG2, at 10uM; assay type: cell-based; design: test concentration 10 uM, cell line HepG2-A16-CD81EGFP; conditions: human, HepG2-A16-CD81EGFP cells; read-out: INHIBITION
Overview of recorded cytotoxicity at 10 µM for various compounds
outcome_measure: cytotoxicity at 10 µM (%)

> print(dat)
                                    compound        outcome.measure  readout.unit      val
 1  COc1cccc(C(=O)NC(C)CCN2CCOCC2)c1F (centres undefined)  cytotoxicity at 10 µM             %    -45.2
 2   COc1cc(NC2CCN(C3CCS(=O)(=O)CC3)CC2)ncn1  cytotoxicity at 10 µM             %     1.64
 3  CC1CCCCN1CCNC(=O)c1ccn(-c2ccccc2)n1 (centres undefined)  cytotoxicity at 10 µM             %    -15.2
 4  CN(C)CCN(Cc1cccc(F)c1)C(=O)c1ccc2nccn2c1  cytotoxicity at 10 µM             %  -0.0817
 5  COCC(c1ccccn1)N(C)C(=O)c1cc(-c2ccccc2O)n[nH]1 (centres undefined)  cytotoxicity at 10 µM             %    -1.84
 6  O=C(O)[C@H]1CN(Cc2ccccc2)C[C@@H]1C(=O)c1ccccc1  cytotoxicity at 10 µM             %     5.76
 7  CC(C)(C)CC(=O)N1CC[C@H]2CC(=O)N(CCc3c[nH]cn3)CC[C@H]2C1  cytotoxicity at 10 µM             %    -3.97
 8      CCn1cnnc1CNC(=O)N1CCC(CN2CCCCCC2)CC1  cytotoxicity at 10 µM             %    -8.57
 9  Cc1ccccc1C1CCN(CCn2cc(-c3nccs3)nn2)C1 (centres undefined)  cytotoxicity at 10 µM             %    -1.29
10  CCn1nnc2c1C(COC)CN(C(=O)Cc1ccccn1)C2 (centres undefined)  cytotoxicity at 10 µM             %     4.64
11  COCCOc1ccnc(-c2noc([C@@H]3CCCN3CC(C)(C)C)n2)c1  cytotoxicity at 10 µM             %    -12.7
12  Cc1cc(C)n(C2CCCN(C(=O)CCCNc3ncccn3)C2)n1 (centres undefined)  cytotoxicity at 10 µM             %     5.15
13      COC(=O)CCN(C)C(=O)c1ccc(-c2cscn2)cc1  cytotoxicity at 10 µM             %    -7.29
14        CCOC(=O)CN1CCC(NC(=O)OC(C)(C)C)CC1  cytotoxicity at 10 µM             %    0.449
15  O=C(c1cccs1)N1CCc2c(nc(N3CCCCC3)[nH]c2=O)C1  cytotoxicity at 10 µM             %    -14.5
16  CC(Cn1cccn1)NC(=O)NCCc1ccc(Cl)s1 (centres undefined)  cytotoxicity at 10 µM             %    -3.56
17  CC(CNC(=O)N1CCS(=O)(=O)CC1)Cc1cccs1 (centres undefined)  cytotoxicity at 10 µM             %    -9.47
18  CC(Nc1cccc(CN2CCOC2=O)c1)C(=O)NC(=O)NC(C)(C)C (centres undefined)  cytotoxicity at 10 µM             %    -10.9
19  CCC1(CO)CCCN(c2ncccc2C#N)C1 (centres undefined)  cytotoxicity at 10 µM             %    -9.06
20  O=C(C1CC1)N1CC[C@H](c2nnc(-c3ccccc3F)o2)C1  cytotoxicity at 10 µM             %    0.705
21  O=c1[nH]c2nc(N3CCCCCC3)ncc2c(=O)n1-c1cccc(F)c1  cytotoxicity at 10 µM             %     6.39
22  N#Cc1nccnc1NC1CCN(c2ccccc2Br)C1 (centres undefined)  cytotoxicity at 10 µM             %     3.92
23  NC(=O)Cn1cc(NC(=O)N2CCN(c3ccccc3)CC2)cn1  cytotoxicity at 10 µM             %    -8.45
24  CC(C)CNC(=O)c1nc2c(s1)CCN(C(=O)c1cccnc1)CC2  cytotoxicity at 10 µM             %      7.1

###

assay: Toxicity liver stage against HepG2, at 10uM; type: cell-based; set-up: test concentration 10 uM, cell line HepG2-A16-CD81EGFP; conditions: human, HepG2-A16-CD81EGFP cells; read-out: INHIBITION
outcome_measure: cytotoxicity at 10 µM (%)

> print(dat)
                                    compound  readout.unit     val
 1  CCS(=O)(=O)NC[C@]12COC[C@H]1CN(Cc1cccnc1)C2             %    5.22
 2  O[C@@H]1CN(Cc2ccc(F)cc2)CC[C@H]1NCc1ccccn1             %   -2.83
 3  CC1N(CC2CC2)C(=O)COC12CCN(C(=O)c1cnccn1)CC2 (configuration not stated)             %   -2.57
 4  Cc1nc(CNC(C)c2ccc(S(=O)(=O)N(C)C)cc2)no1 (configuration not stated)             %   -4.32
 5  CC(C(=O)NCc1ccc(N2CCN(C)CC2)nc1)n1cccn1 (configuration not stated)             %   -9.51
 6  Cc1ccccc1CCC1CCCN(Cc2c(C)[nH]c(=O)[nH]c2=O)C1 (configuration not stated)             %       5
 7  Cc1cc(F)c(C(C(=O)O)N2CCN(Cc3ccccn3)CC2)cc1Cl (configuration not stated)             %     4.2
 8  O=C(NC(Cc1ccsc1)c1nccs1)C1CC1 (configuration not stated)             %   -28.3
 9  O=C(CSC(F)(F)F)N1CCC2(CCCN(C3CCOCC3)C2=O)C1 (configuration not stated)             %    -128
10  O=S1(=O)c2cccnc2OC(Cc2ccccc2)CN1CC1CC1 (configuration not stated)             %   -2.46
11  CCN(Cc1ccoc1)C(=O)NC1CCN(CC2CC2)C1 (configuration not stated)             %  -0.525
12  CCOc1ccc(C(=O)N2CCCCC2Cn2nc(C)cc2C)cn1 (configuration not stated)             %     6.6
13  COc1ccc([C@@H]2CN(C(=O)CCC(F)(F)F)C[C@H]2NC(C)=O)cc1             %    2.12
14  O=C(C1CN(CC2CCOCC2)CC12CCOCC2)N1CCOCC1 (configuration not stated)             %    7.49
15            CCc1cccnc1NCc1cnc(N2CCOCC2)nc1             %    1.03
16  COc1cc2nc(C)n(CC(=O)NCCCN(C)C)c(=O)c2cc1OC             %    2.11
17  O=C([C@@H]1C[C@@H]2CCN(Cc3ccccn3)C[C@H]2O1)N1CCCO1             %    2.29
18  CC1=Nc2c(c(=O)[nH]n2C(C)C)C(c2ccsc2)S1 (configuration not stated)             %   -2.92
19  COC(=O)Cn1cccc(S(=O)(=O)N2CCC(C)CC2)c1=O             %   -2.85
20  CCN1CCCC1CNC(=O)Cc1c(C)n[nH]c1-c1ccc(F)cc1 (configuration not stated)             %   -3.02
21  Cc1nc(C)c(C)c(N2CCC3(CCN(C)C3)C2)n1 (configuration not stated)             %   -4.88
22  Cc1ncncc1C(=O)N1CCOC(C)(C(=O)NC2CCCC2)C1 (configuration not stated)             %   -36.4
23  COC(=O)c1ccc(OC)c(OC23CCCN(CC2)C3)c1 (configuration not stated)             %   -13.9
24         CCN1CCN(c2ccc(C(=O)NCCOC)cc2F)CC1             %    1.12
25  Cc1occc1C(=O)N1CCC2(CCC2NC(=O)c2ccn(C)c2)CC1 (configuration not stated)             %   -1.75
26  Cc1ccc(C(C)N(C)Cc2nc3c(cnn3C)c(=O)[nH]2)s1 (configuration not stated)             %   -4.31
27  CCN(C(=O)c1ccc(-n2ncc(C#N)c2N)cc1)C1CCCC1             %     -13
28  Cc1cc(-c2cnc(N3CCSCC3)nc2-c2ccc(C)s2)on1             %    -2.5
29  c1nc(CCC2CCCN2)cc(N2CCCCCC2)n1 (configuration not stated)             %   -20.6
30  CN1CCCC1CCn1ccnc1-c1ccc2ccccc2n1 (configuration not stated)             %  0.0773
31  CCS(=O)(=O)N1CCN(Cc2ccncc2)c2nc(C)ccc2C1             %   -70.8
32  CN(C)CC1(O)CCN(S(=O)(=O)c2ccc(F)cc2)C1 (configuration not stated)             %   -3.09
33          CNC(=O)CN(C)CC1(c2ccc(Br)cc2)CC1             %    3.89
34    Cc1ccc2cc(CN(C)Cc3ccccn3)c(=O)[nH]c2c1             %    3.08
35  CC(C)CNC(=O)C1=NOC2(CCN(Cc3cccc(C#N)c3)C2)C1 (configuration not stated)             %    8.37
36  Cc1cnc(N)c(C(=O)C2CCN(C(=O)c3cnc(C)nc3C)CC2)c1             %     -18
37  CN(Cc1ccco1)C1CCC12CCN(C(=O)c1ccncc1)CC2 (configuration not stated)             %    2.82
38    COc1ccc(C(=O)NCCCC2(C3OCCO3)CCOCC2)cc1             %    3.05
39  O=C(c1ccoc1)N1CC[C@@H]2[C@@H](CC1)OCCN2c1cccnc1             %    11.1
40  Cc1cc(C)n(CC(C)NC(=O)C2(c3ccc(F)cc3)CC2)n1 (configuration not stated)             %    11.5
41      N#CC1(NC(=O)c2ccc(F)cc2OC(F)F)CCOCC1             %    2.24
42       COc1ccccc1OCCCN1CC=C(c2cnn(C)c2)CC1             %    8.32
43  Cc1[nH]c2ccccc2c1-c1ccnc(N[C@H](CO)CC(C)C)n1             %    0.97
44  Cc1nc2cc(OCc3nc(C(=O)NC(C)(CO)CO)co3)ccc2s1             %    47.6
45      Cc1ccccc1CNC(=O)CN1CCN(Cc2nccn2C)CC1             %   -5.75
46               CCN(CC1=CCN(C)CC1)C(=O)CCOC             %    5.09
47  O=C(NCc1ccncc1)N1CCSCC1CCO (configuration not stated)             %     2.3
